The origin of these recorded values is patent US8952026B2.

The next entries give measured IC50 for full-length human GST-tagged PRMT1 (Homo sapiens, UniProt Q99873).

Below, each entry is followed by its recorded IC50 result.
smiles-text	measured-attribute	observed-result
CNCCN(C)Cc1c[nH]nc1-c1cc(OCCOC)cc(C(F)(F)F)c1	IC50	< 100 nM
CNCCN(C)Cc1n[nH]cc1-c1ccc(OCCCOC)c(C(F)(F)F)c1	IC50	< 100 nM
CNCCN(C)Cc1c[nH]nc1-c1cc(OCC(F)(F)F)cc(C(F)(F)F)c1	IC50	< 100 nM
CNCCN(C)Cc1c[nH]nc1-c1cc(Oc2ccncc2)cc(C(F)(F)F)c1	IC50	101 to 1000 nM

API: the following record is the query input.
Give IC50 for the following compound: `CNCCN(C)Cc1c[nH]nc1-c1cc(OCCc2ccccc2OC)cc(C(F)(F)F)c1`
< 100 nM

* * *

# measured-on: full-length human GST-tagged PRMT1 (Homo sapiens, UniProt Q99873)
# Sequence (Q99873 with tags, fused parts or gaps): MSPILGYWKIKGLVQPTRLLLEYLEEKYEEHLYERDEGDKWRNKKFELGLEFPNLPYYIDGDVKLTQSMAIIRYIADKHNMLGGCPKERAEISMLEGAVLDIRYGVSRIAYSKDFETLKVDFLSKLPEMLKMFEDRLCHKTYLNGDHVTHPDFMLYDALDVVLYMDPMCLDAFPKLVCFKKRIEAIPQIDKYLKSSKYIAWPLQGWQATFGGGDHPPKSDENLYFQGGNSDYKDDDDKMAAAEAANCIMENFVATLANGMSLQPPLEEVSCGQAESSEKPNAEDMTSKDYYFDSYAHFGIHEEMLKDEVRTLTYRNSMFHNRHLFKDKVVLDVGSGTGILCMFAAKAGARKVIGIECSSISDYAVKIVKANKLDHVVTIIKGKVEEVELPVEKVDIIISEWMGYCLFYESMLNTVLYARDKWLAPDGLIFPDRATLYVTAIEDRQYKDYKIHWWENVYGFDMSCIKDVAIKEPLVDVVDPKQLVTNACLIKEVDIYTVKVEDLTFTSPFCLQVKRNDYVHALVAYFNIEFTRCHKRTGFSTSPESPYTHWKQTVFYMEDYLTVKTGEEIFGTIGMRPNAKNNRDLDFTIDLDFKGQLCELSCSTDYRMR
pIC50: −log10 of the molar value.
measured-attribute: pIC50

Solved entries:
molecule	measured-on	measured-attribute	observed-result
CNCCN(C)Cc1c[nH]nc1-c1cc(Oc2ccccn2)cc(C(F)(F)F)c1	full-length human GST-tagged PRMT1 (Homo sapiens, UniProt Q99873)	pIC50	> 7.00
CC(C)CCOc1cc(-c2n[nH]cc2CN(C)CCN)cc(C(F)(F)F)c1Cl	full-length human GST-tagged PRMT1 (Homo sapiens, UniProt Q99873)	pIC50	6.00 to 7.00
CNCCN(C)Cc1c[nH]nc1-c1cc(C)c(OC2CCOCC2)c(C(F)(F)F)c1	full-length human GST-tagged PRMT1 (Homo sapiens, UniProt Q99873)	pIC50	> 7.00
CNCCN(C)Cc1c[nH]nc1-c1cc(OC2CCCCC2)cc(C(F)(F)F)c1	full-length human GST-tagged PRMT1 (Homo sapiens, UniProt Q99873)	pIC50	> 7.00
CNCCN(C)Cc1n[nH]cc1-c1cc(C(O)C(C)C)cc(C(F)(F)F)c1 (stereo not drawn)	full-length human GST-tagged PRMT1 (Homo sapiens, UniProt Q99873)	pIC50	5.52 to 6.00

Output reported pIC50 of the molecule `CNCCN(C)Cc1n[nH]cc1-c1ccc(OCC(C)C)c(C(F)(F)F)c1` on full-length human GST-tagged PRMT1 (Homo sapiens, UniProt Q99873).
> 7.00

# lookup: full-length human GST-tagged PRMT1 (Homo sapiens, UniProt Q99873) pIC50, key = `CN(CCN)Cc1c[nH]nc1-c1ccc(Cl)c(C(F)(F)F)c1`
> 7.00

Fetch value of pIC50 on full-length human GST-tagged PRMT1 (Homo sapiens, UniProt Q99873) for `CNCCN(C)Cc1n[nH]cc1-c1ccc(OCCOC)c(C(F)(F)F)c1` .
> 7.00

Given `CNCCN(C)Cc1c[nH]nc1-c1cc(Cl)c(OC(C)C)c(C(F)(F)F)c1` , report its pIC50 on full-length human GST-tagged PRMT1 (Homo sapiens, UniProt Q99873).
> 7.00

* * *

Values of pIC50 reported for full-length human GST-tagged PRMT1 (Homo sapiens) appear below.
pIC50: −log10 of the molar value.

Give full-length human GST-tagged PRMT1 (Homo sapiens) pIC50 for the following molecule: `CNCCN(C)Cc1c[nH]nc1-c1cc(Cl)c(OCC2CC2)c(C(F)(F)F)c1`
> 7.00

Name the recorded pIC50 of `CCCOc1ccc(-c2n[nH]cc2CN(C)CCNC)cc1C(F)(F)F` , assay system full-length human GST-tagged PRMT1 (Homo sapiens).
> 7.00

Give pIC50 for this entry on full-length human GST-tagged PRMT1 (Homo sapiens): `CN(CCN)Cc1c[nH]nc1-c1cc(C(F)(F)F)cc(C(F)(F)F)c1`
6.00 to 7.00

Quote full-length human GST-tagged PRMT1 (Homo sapiens) pIC50 for entry `CNCCN(C)Cc1n[nH]cc1-c1ccc(OCCC(C)C)c(C(F)(F)F)c1` .
> 7.00

Check full-length human GST-tagged PRMT1 (Homo sapiens) data and give pIC50 for `CC(C)Oc1cc(-c2n[nH]cc2CN(C)CCN)cc(C(F)(F)F)c1` .
> 7.00

Retrieve pIC50 on full-length human GST-tagged PRMT1 (Homo sapiens); query `CNCCN(C)Cc1c[nH]nc1-c1cc(Oc2cncnc2)cc(C(F)(F)F)c1`
6.00 to 7.00

Report pIC50 on full-length human GST-tagged PRMT1 (Homo sapiens) for this entry: `CNCCN(C)Cc1c[nH]nc1-c1ccc(OCC(C)C)c(C(F)(F)F)c1`
> 7.00

Answer with pIC50 of `CNCCN(C)Cc1c[nH]nc1-c1cccc(C(F)(F)F)c1` measured for full-length human GST-tagged PRMT1 (Homo sapiens).
6.00 to 7.00
